target: pooled human IgG
OBSERVABLE: Enzyme Activity Endpoint Assay: scIgG (ng/µL)
Write the answer as a number in ng/µL, unit excluded.

Form: protein = PRT-21 (protein) MANQEIRYSEVSPSTVTSVWTKGVTPPTNFTYGEDVLHAPYVANQGWYDITKTFNGKDDLLCGAATAGNMLHWWFDQNKEQIENYLKKHPEKQKINFNGEQMFDVKEAIDTKDSQLDSKLFEYFKEKAFPYLSTKHLGVFPDHVIDMFINGYRLSLTNHGPTPVKRGSKDPRGGIFDAVFTRGDQSKLLTNRHDFKEKTLKEISDLIKQELTEGKALGISHTYANVRINHVINLWGADFDAEGNLEAIYVTDSDSNASIGMKKYFVGVNSNGKVAISAKEIEEDNIGAQVLGLFTLSTGQDIWNQTN ; Enzyme Activity Endpoint Assay: scIgG = 28
